Reference source for all entries: patent US6838416B2

- System: ECHOR (seed)
- assay method text: Assay for herbicidal activity, paddy pots: ECHOR
- Format: in vivo, Echinochloa crus-galli var. oryzicola
- recorded conditions: 1.000 kg/ha; three weeks after application; 0 untreated control, 100 complete kill
parameter: ECHOR (seed) herbicidal activity, visual percentage grading

[[record]]
molecule = "Cc1ccc(C2=NOC(C)(COCc3cccc(F)c3)C2)s1 (stereo not drawn)"
data_value = "100%"

[[record]]
molecule = "CC1(COCc2c(F)cccc2F)CC(c2sccc2Br)=NO1 (stereo not drawn)"
data_value = "100%"

[[record]]
molecule = "Cc1cc(C)c(C2=NOC(C)(COCc3ccccc3F)C2)s1 (stereo not drawn)"
data_value = "100%"

[[record]]
molecule = "COc1ccsc1C1=NOC(C)(COCc2c(F)cccc2F)C1 (stereo not drawn)"
data_value = "100%"

[[record]]
molecule = "CC1(COCc2c(F)cccc2F)CC(c2cccs2)=NO1 (stereo not drawn) [Compound A, reference compound]"
data_value = "100%"

[[record]]
molecule = "CC1(COCc2c(F)cccc2F)CC(c2ccc(Br)s2)=NO1 (stereo not drawn)"
data_value = "100%"

[[record]]
molecule = "CC1(COCc2cccc(F)c2)CC(c2sccc2Br)=NO1 (stereo not drawn)"
data_value = "100%"

[[record]]
molecule = "Cc1cc(C)c(C2=NOC(C)(COCc3c(F)cccc3F)C2)s1 (stereo not drawn)"
data_value = "100%"

[[record]]
molecule = "Cc1ccsc1C1=NOC(C)(COCc2c(F)cccc2F)C1 (stereo not drawn)"
data_value = "100%"

[[record]]
molecule = "Cc1ccsc1C1=NOC(C)(COCc2ccccc2F)C1 (stereo not drawn)"
data_value = "100%"

[[record]]
molecule = "Cc1ccsc1C1=NOC(C)(COCc2ccccc2)C1 (stereo not drawn)"
data_value = "100%"

[[record]]
molecule = "CC1(COCc2c(F)cccc2F)CC(c2ccc([N+](=O)[O-])s2)=NO1 (stereo not drawn)"
data_value = "100%"

